# targetOrTestSystem: Histone deacetylase 3/Nuclear receptor corepressor 2 (HDAC3/NCoR2) (Homo sapiens, UniProt O15379)
# Sequence (O15379 whole entry): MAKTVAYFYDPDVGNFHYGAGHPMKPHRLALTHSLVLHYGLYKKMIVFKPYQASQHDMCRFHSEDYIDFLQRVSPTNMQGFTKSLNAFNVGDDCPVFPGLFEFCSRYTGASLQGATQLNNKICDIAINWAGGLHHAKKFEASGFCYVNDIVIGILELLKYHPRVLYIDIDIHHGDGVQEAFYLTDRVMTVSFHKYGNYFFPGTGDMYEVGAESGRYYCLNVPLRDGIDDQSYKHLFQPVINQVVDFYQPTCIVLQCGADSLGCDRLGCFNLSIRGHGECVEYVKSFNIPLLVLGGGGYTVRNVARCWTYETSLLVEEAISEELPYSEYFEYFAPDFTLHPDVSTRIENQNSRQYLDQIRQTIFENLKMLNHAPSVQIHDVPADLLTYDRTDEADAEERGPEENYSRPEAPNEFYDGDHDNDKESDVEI
# Sequence (Q9Y618 whole entry, further chain): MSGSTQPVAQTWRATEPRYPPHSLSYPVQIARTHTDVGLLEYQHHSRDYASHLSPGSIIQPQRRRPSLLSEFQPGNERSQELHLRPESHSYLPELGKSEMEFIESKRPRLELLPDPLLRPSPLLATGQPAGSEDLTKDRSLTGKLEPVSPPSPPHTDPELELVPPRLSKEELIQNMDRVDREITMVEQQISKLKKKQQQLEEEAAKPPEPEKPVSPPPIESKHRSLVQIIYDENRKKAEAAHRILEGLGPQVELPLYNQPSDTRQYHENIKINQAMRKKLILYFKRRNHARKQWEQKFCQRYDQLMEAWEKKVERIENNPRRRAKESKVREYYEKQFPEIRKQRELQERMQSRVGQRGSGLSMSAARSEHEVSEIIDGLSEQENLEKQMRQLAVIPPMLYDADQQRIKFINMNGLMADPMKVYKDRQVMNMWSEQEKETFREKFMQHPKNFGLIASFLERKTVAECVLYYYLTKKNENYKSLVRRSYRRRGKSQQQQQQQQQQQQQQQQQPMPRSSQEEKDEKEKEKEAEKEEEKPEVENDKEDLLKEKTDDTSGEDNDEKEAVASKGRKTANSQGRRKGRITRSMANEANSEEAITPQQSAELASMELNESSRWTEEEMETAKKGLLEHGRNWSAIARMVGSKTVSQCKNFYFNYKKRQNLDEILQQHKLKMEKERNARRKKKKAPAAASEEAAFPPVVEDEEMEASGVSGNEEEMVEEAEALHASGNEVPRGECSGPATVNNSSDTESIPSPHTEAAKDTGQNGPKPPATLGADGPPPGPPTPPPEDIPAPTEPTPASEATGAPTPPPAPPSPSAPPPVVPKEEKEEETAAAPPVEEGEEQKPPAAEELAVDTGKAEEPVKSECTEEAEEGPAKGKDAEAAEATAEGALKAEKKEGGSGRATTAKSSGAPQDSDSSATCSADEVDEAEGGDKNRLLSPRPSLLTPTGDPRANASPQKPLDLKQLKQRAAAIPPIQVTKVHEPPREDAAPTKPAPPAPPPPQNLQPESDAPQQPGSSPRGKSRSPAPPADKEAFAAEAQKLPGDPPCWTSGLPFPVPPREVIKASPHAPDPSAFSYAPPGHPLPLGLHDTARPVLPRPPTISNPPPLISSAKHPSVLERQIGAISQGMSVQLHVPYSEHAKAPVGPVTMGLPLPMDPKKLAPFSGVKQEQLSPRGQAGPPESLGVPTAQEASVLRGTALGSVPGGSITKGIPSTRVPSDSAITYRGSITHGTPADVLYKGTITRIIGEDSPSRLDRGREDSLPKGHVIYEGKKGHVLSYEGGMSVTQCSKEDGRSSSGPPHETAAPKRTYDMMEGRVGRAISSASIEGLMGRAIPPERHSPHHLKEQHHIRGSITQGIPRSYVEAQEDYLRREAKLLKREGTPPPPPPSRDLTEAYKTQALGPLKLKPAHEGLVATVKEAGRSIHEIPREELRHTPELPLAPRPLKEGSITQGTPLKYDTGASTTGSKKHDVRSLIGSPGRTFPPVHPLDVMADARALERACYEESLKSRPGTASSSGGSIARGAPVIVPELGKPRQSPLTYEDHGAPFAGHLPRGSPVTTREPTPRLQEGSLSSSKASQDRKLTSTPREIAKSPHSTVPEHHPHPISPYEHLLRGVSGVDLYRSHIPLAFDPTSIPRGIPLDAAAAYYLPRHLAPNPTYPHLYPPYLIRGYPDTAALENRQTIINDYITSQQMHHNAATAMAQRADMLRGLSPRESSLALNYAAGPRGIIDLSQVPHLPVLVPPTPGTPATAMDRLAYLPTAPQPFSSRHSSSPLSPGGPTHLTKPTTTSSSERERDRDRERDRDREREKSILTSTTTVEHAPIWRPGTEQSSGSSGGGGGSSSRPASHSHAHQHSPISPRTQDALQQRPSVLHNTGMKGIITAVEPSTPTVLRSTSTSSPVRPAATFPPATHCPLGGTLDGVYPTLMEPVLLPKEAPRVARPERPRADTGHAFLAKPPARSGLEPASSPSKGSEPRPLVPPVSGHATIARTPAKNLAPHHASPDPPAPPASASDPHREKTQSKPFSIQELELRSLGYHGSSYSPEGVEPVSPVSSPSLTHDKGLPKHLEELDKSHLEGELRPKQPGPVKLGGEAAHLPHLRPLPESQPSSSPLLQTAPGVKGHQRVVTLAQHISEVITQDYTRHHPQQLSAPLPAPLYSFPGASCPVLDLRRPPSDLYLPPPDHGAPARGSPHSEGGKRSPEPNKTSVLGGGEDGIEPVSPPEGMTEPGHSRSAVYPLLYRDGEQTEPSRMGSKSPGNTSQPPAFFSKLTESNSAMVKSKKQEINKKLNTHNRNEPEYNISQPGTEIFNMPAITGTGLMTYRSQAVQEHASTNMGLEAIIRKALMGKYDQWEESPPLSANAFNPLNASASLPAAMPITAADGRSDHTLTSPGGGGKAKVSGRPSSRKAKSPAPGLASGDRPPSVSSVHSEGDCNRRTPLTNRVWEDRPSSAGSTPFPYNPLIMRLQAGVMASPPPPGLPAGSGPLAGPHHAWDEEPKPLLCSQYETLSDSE
# assayInfo: Inhibition of full length recombinant human C-terminal His-tagged HDAC3/N-terminal GST-tagged NCOR2 co-expressed in baculovirus expression system using Boc-Lys(acetyl)-AMC as substrate preincubated for 1 hr followed by substrate addition measured after 2 hrs by fluorescence assay
resultType: IC50 (µM)
Report the value in µM with no unit label.

Suppose we examine the compound CCCNNC(=O)CCCCCNC(=O)[C@H](Cc1c[nH]c2ccccc12)NC(=O)c1ccc(OC)cc1 ; what IC50 value has been reported? 0.0124

Suppose we examine the compound CCCCCNNC(=O)c1ccc(CNC(=O)[C@H](Cc2c[nH]c3ccccc23)NC(=O)c2ccc(OC)cc2)cc1 ; what IC50 value has been reported? 0.0109

Suppose we examine the compound CCCCNNC(=O)c1ccc(CNC(=O)[C@H](Cc2c[nH]c3ccccc23)NC(=O)c2ccc(OC)cc2)cc1 ; what IC50 value has been reported? 0.0165

Suppose we examine the compound CCCNNC(=O)CCCCCCCNC(=O)[C@H](Cc1c[nH]c2ccccc12)NC(=O)c1ccc(OC)cc1 ; what IC50 value has been reported? 0.0121

Origin of the recorded values: ChEMBL document CHEMBL4020839
